molecular target: DNA-PK(h) (Homo sapiens); assay: Evaluation of inhibitory activity against DNA-PK (HTRF kinase assay, GST-cMyc-p53 substrate); type: biochemical; details: compound concentration 0.01 μM; read-out: EXP_VALUE(% Inhibition) DNA-PK(h) 0.01 μM
Kindly state inhibition at 0.01 µM for each of the entries shown.
Answers are plain numbers, in %.

Worked set:
C[C@H](Nc1ncnc2[nH]ccc(=O)c12)c1c(Cl)c2cccc(-c3ccc(S(C)(=O)=O)nc3)c2c(=O)n1-c1ccccc1 : 82
C[C@H](Nc1ncnc2[nH]ccc(=O)c12)c1c(Cl)c2cccc(C(=O)NC(C)(C)CO)c2c(=O)n1-c1ccccc1 : 10

Pending compound:
Under DNA-PK(h) (Homo sapiens), report inhibition at 0.01 µM for C[C@H](Nc1ncnc2[nH]ccc(=O)c12)c1c(Cl)c2cccc(-c3ccc(N4CCOCC4)nc3)c2c(=O)n1-c1ccccc1
80

* * *

biological target: PI3K-δ (PI3K(p1108/p857) (h)) (Homo sapiens, UniProt O00329); assay: Evaluation of inhibitory activity against PI3K-δ (HTRF kinase assay); type: biochemical; details: compound concentration 0.01 μM; read-out: EXP_VALUE(% Inhibition) PI3K-δ 0.01 μM
Sequence (O00329 whole entry): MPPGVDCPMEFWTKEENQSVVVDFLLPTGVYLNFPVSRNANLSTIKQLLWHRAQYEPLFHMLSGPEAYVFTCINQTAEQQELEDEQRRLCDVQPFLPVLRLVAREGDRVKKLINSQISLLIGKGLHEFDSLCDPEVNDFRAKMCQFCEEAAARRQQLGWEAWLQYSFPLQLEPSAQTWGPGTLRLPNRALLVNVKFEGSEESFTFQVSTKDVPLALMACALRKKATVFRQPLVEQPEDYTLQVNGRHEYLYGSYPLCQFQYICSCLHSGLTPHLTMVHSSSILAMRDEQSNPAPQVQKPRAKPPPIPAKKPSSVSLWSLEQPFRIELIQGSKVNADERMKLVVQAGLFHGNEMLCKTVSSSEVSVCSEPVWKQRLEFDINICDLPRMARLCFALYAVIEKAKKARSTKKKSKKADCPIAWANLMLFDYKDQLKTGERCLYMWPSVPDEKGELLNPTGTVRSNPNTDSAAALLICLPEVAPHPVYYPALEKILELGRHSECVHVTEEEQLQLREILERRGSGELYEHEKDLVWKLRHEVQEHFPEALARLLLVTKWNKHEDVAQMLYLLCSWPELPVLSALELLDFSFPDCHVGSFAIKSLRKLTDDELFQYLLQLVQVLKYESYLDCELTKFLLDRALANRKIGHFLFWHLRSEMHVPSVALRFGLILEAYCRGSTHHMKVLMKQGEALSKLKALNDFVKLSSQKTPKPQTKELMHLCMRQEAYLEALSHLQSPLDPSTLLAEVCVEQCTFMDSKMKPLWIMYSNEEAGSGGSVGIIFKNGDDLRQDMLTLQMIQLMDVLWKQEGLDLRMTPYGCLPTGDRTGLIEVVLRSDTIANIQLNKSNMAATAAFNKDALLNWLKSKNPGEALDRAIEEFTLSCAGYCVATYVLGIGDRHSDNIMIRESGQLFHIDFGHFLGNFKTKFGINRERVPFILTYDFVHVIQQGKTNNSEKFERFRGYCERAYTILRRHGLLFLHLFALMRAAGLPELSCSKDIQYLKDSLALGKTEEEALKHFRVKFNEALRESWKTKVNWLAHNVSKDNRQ
Sequence (P27986 whole entry partner): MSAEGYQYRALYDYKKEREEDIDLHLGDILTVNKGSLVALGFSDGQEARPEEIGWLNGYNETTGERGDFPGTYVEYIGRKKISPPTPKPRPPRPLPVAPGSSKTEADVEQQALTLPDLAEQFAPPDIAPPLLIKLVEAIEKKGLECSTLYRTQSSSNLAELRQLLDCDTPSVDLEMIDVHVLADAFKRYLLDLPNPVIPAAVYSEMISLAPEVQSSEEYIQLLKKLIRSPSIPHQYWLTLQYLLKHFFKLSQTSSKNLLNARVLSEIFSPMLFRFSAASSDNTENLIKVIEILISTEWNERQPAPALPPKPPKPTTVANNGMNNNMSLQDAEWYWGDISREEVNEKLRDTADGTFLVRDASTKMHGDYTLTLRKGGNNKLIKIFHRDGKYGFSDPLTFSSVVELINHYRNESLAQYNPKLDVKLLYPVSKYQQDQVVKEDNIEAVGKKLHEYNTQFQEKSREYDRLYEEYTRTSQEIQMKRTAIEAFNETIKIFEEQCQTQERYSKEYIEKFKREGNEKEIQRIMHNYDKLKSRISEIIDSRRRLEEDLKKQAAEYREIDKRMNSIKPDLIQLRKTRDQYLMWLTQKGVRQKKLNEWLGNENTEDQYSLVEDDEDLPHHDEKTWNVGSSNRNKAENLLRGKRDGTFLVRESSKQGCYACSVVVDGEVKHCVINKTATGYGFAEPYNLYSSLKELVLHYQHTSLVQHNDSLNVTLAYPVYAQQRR
ASSAY_READOUT: inhibition at 0.01 µM (%)
Numbers only, in %.

Worked set:
C[C@H](Nc1ncnc2[nH]ccc(=O)c12)c1c(Cl)c2cccc(-c3cnc(C(C)(C)O)nc3)c2c(=O)n1-c1ccccc1 [Example 26] : 92
CCNc1ncc(-c2cccc3c(Cl)c([C@H](C)Nc4ncnc5[nH]ccc(=O)c45)n(-c4ccccc4)c(=O)c23)cn1 [Example 228] : 88
C[C@H](Nc1ncnc2[nH]ccc(=O)c12)c1c(Cl)c2cccc(C(=O)C3CC3)c2c(=O)n1-c1ccccc1 [Example 269] : 37
C[C@H](Nc1ncnc2[nH]ccc(=O)c12)c1c(Cl)c2cccc(-c3cnc(C4CCC4)nc3)c2c(=O)n1-c1ccccc1 [Example 54] : 55

Items follow; give inhibition at 0.01 µM for each.
1. C[C@H](Nc1ncnc2[nH]ccc(=O)c12)c1c(Cl)c2cccc(C#Cc3cccnc3)c2c(=O)n1-c1ccccc1 [Example 307]
2. C[C@H](Nc1ncnc2[nH]ccc(=O)c12)c1c(Cl)c2cccc(-c3cc(F)ccc3Cl)c2c(=O)n1-c1ccccc1 [Example 107]
3. C[C@H](Nc1ncnc2[nH]ccc(=O)c12)c1c(Cl)c2cccc(C(O)C(C)(C)C)c2c(=O)n1-c1ccccc1 (stereo partly shown) [Example 357]

1: 83; 2: 59; 3: 11

* * *

Biological target: DNA-PK(h) (Homo sapiens)
Assay: Evaluation of inhibitory activity against DNA-PK (HTRF kinase assay, GST-cMyc-p53 substrate)
Type: biochemical
Details: compound concentration 0.1 μM; read-out: EXP_VALUE(% Inhibition) DNA-PK(h) 0.1 μM
Description: <Experimental Example 2> Evaluation of Inhibitory Activity Properties Against DNA-PK […] DNA-PK(h) was subjected to an isothermal treatment in an assay buffer comprising […] GST-cMyc-p53 and Mg/ATP (at a concentration as required). […] A plate was read in a time-resolved fluorescence mode and a homogeneous time-resolved fluorescence (HTRF) signal was determined according to HTRF=10000×(Em 665 nm/Em 620 nm).
ASSAY_READOUT: inhibition at 0.1 µM
Kindly format the answer as number then unit.

Worked set:
C[C@H](Nc1ncnc2[nH]ccc(=O)c12)c1cc2cccc(-c3nc4ccccc4o3)c2c(=O)n1-c1ccccc1 [Example 318] : 35%
C[C@H](Nc1ncnc2[nH]ccc(=O)c12)c1c(Cl)c2cccc(-c3ccc(C4CCC4)cc3)c2c(=O)n1-c1ccccc1 [Example 118] : 74%
C[C@H](Nc1ncnc2[nH]ccc(=O)c12)c1c(Cl)c2cccc(/C(N)=N/O)c2c(=O)n1-c1ccccc1 [Example 350] : 55%

Items follow; give inhibition at 0.1 µM for each.
1. C[C@H](Nc1ncnc2[nH]ccc(=O)c12)c1c(Cl)c2cccc(NCc3cccnc3)c2c(=O)n1-c1ccccc1 [Example 324]
2. C[C@H](Nc1ncnc2[nH]ccc(=O)c12)c1c(Cl)c2cccc(N3CCC[C@H]3C(N)=O)c2c(=O)n1-c1ccccc1 [Example 337]
3. C[C@H](Nc1ncnc2[nH]ccc(=O)c12)c1cc2cccc(C#N)c2c(=O)n1-c1ccccc1 [Example 266]
4. C[C@H](Nc1ncnc2[nH]ccc(=O)c12)c1c(Cl)c2cccc(N3CCN(c4ccccc4)CC3)c2c(=O)n1-c1ccccc1 [Example 326]

["74%", "63%", "3%", "24%"]

Read off the recorded inhibition at 0.1 µM for C[C@H](Nc1ncnc2[nH]ccc(=O)c12)c1c(Cl)c2cccc(NCc3ccccc3)c2c(=O)n1-c1ccccc1 [Example 321]
34%

* * *

molecular target: PI3K-δ (PI3K(p1108/p857) (h)) (Homo sapiens, UniProt O00329); experiment: Evaluation of inhibitory activity against PI3K-δ (HTRF kinase assay); format: biochemical; details: compound concentration 0.1 μM; read-out: EXP_VALUE(% Inhibition) PI3K-δ 0.1 μM
Kindly state inhibition at 0.1 µM for each of the entries shown.
Answers are plain numbers, in %.

Worked set:
C[C@H](Nc1ncnc2[nH]ccc(=O)c12)c1c(Cl)c2cccc(-c3cnc(N(C)C)nc3)c2c(=O)n1-c1ccccc1 [Example 112] : 96
C[C@H](Nc1ncnc2[nH]ccc(=O)c12)c1c(Cl)c2cccc(C(N)=O)c2c(=O)n1-c1ccccc1 [Example 291] : 101
C[C@H](Nc1ncnc2[nH]ccc(=O)c12)c1c(Cl)c2cccc(-c3ccc(N(C)C)cc3)c2c(=O)n1-c1ccccc1 [Example 72] : 112
C[C@H](Nc1ncnc2[nH]ccc(=O)c12)c1c(Cl)c2cccc(C#Cc3ccc(N(C)C)cc3)c2c(=O)n1-c1ccccc1 [Example 314] : 96

Items follow; give inhibition at 0.1 µM for each.
1. C[C@H](Nc1ncnc2[nH]ccc(=O)c12)c1c(Cl)c2cccc(-c3ccc4c(c3)ncn4C)c2c(=O)n1-c1ccccc1 [Example 114]
2. C[C@H](Nc1ncnc2[nH]ccc(=O)c12)c1c(Cl)c2cccc(N(C)Cc3ccc4ccccc4c3)c2c(=O)n1-c1ccccc1 [Example 334]
3. C[C@H](Nc1ncnc2[nH]ccc(=O)c12)c1c(Cl)c2cccc(C#Cc3ccncc3)c2c(=O)n1-c1ccccc1 [Example 306]

[95, 49, 105]

* * *

Kindly state inhibition at 0.01 µM for each of the entries shown.
target: PI3K-δ (PI3K(p1108/p857) (h)) (Homo sapiens, UniProt O00329); assay: Evaluation of inhibitory activity against PI3K-δ (HTRF kinase assay); format: biochemical; details: compound concentration 0.01 μM; read-out: EXP_VALUE(% Inhibition) PI3K-δ 0.01 μM
Answers are plain numbers, in %.

Items follow; give inhibition at 0.01 µM for each.
1. C[C@H](Nc1ncnc2[nH]ccc(=O)c12)c1c(Cl)c2cccc(-c3ccc(CN4CCOCC4)cc3F)c2c(=O)n1-c1ccccc1 [Example 231]
2. C[C@H](Nc1ncnc2[nH]ccc(=O)c12)c1cc2cccc(-c3ccc(C#N)cc3)c2c(=O)n1-c1ccccc1 [Example 23]

[44, 82]

* * *

molecular target: DNA-PK(h) (Homo sapiens, UniProt P78527); assay: Evaluation of inhibitory activity against DNA-PK (HTRF kinase assay, GST-cMyc-p53 substrate); assay type: biochemical; details: compound concentration 0.01 μM; read-out: EXP_VALUE(% Inhibition) DNA-PK(h) 0.01 μM
Kindly state inhibition at 0.01 µM for each of the entries shown.
One number for each entry, in %.

Items follow; give inhibition at 0.01 µM for each.
1. C[C@H](Nc1ncnc2[nH]ccc(=O)c12)c1c(Cl)c2cccc(COCC(C)(C)CO)c2c(=O)n1-c1ccccc1 [Example 359]
2. Cc1cc(-c2cccc3c(Cl)c([C@H](C)Nc4ncnc5[nH]ccc(=O)c45)n(-c4ccccc4)c(=O)c23)n[nH]1 [Example 234]
3. Cc1ccc2c(c1)CN(c1cccc3c(Cl)c([C@H](C)Nc4ncnc5[nH]ccc(=O)c45)n(-c4ccccc4)c(=O)c13)CC2 [Example 329]

1. 8
2. 50
3. 4

* * *

Kindly state inhibition at 0.1 µM for each of the entries shown.
Biological target: PI3K-δ (PI3K(p1108/p857) (h)) (Homo sapiens)
Assay: Evaluation of inhibitory activity against PI3K-δ (HTRF kinase assay)
Type: biochemical
Details: compound concentration 0.1 μM; read-out: EXP_VALUE(% Inhibition) PI3K-δ 0.1 μM
Description: <Experimental Example 1> Evaluation of Inhibitory Activity Properties Against PI3K-δ […] A detection buffer comprising Eu (europium)-labelled anti-GST monoclonal antibody, GST-tagged GRP1 PH domain and streptavidin-allophycocyanin was added. A plate was read in a time-resolved fluorescence mode and a homogeneous time-resolved fluorescence (HTRF) signal was determined according to HTRF=10000×(Em 665 nm/Em 620 nm).
Numbers only, in %.

Worked set:
C[C@H](Nc1ncnc2[nH]ccc(=O)c12)c1c(Cl)c2cccc(-c3cc4ccccc4o3)c2c(=O)n1-c1ccccc1 : 95
C[C@H](Nc1ncnc2[nH]ccc(=O)c12)c1c(Cl)c2cccc(-c3cccc(Cl)c3)c2c(=O)n1-c1ccccc1 : 99
C[C@H](Nc1ncnc2[nH]ccc(=O)c12)c1c(Cl)c2cccc(-c3nnn[nH]3)c2c(=O)n1-c1ccccc1 : 75
C[C@H](Nc1ncnc2[nH]ccc(=O)c12)c1c(Cl)c2cccc(/C=C/c3ccccc3)c2c(=O)n1-c1ccccc1 : 29.9
C[C@H](Nc1ncnc2[nH]ccc(=O)c12)c1c(Cl)c2cccc(-c3ccc4[nH]c(=O)[nH]c4c3)c2c(=O)n1-c1ccccc1 : 99

Items follow; give inhibition at 0.1 µM for each.
1. Cc1ccc(Oc2cccc3c(Cl)c([C@H](C)Nc4ncnc5[nH]ccc(=O)c45)n(-c4ccccc4)c(=O)c23)cc1
2. Cc1ccc(F)cc1-c1cccc2c(Cl)c([C@H](C)Nc3ncnc4[nH]ccc(=O)c34)n(-c3ccccc3)c(=O)c12

[93, 92]
